System name: human TRPA1 (Homo sapiens, UniProt O75762, K186N/R3C/R58T)
Construct: expressed in transfected cells; pcDNA3 control cells
Sequence (O75762 whole entry R3C/R58T/K186N): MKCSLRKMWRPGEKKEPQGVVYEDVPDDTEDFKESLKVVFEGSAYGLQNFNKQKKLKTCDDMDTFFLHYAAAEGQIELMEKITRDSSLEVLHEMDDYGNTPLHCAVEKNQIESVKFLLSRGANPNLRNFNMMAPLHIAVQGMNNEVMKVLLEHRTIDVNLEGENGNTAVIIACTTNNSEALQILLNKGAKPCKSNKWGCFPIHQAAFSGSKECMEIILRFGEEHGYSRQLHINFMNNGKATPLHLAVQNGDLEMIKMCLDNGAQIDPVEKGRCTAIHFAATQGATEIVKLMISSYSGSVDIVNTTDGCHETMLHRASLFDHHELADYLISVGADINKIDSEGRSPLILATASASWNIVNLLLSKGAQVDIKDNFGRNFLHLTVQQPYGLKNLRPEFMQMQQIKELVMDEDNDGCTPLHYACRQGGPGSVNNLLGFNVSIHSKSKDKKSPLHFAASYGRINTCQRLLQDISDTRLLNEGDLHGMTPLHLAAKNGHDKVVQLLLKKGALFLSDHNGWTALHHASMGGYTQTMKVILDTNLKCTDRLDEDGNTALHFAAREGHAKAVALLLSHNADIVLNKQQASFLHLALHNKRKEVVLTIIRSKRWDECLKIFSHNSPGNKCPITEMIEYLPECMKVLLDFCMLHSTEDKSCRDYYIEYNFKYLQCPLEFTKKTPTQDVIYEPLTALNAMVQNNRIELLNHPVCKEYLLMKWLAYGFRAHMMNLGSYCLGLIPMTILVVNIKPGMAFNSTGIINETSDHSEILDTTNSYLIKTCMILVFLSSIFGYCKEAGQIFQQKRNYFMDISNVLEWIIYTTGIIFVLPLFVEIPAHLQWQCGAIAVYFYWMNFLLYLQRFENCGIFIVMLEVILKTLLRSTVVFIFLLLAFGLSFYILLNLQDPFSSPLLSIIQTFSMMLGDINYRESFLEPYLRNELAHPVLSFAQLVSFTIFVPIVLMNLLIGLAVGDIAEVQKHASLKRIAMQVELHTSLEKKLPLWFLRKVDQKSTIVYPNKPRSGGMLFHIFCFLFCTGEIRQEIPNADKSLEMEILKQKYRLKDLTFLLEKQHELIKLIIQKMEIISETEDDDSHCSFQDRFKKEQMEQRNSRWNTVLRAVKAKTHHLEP
Assay summary: Intracellular calcium (Fluo-4, FLIPR) activation of TRPA1 cells by GRAS compounds
Format: cell-based
Study conditions: Table 1(c); 1 mM; relative to AITC 30 μM
The threshold is inclusive: A1 activation, % of agonist value of exactly 80% counts as MET; values below receive NOT MET.

* C=C(C)[C@@H]1CC=C(C=O)CC1 [L-Perillaldehyde] | MET
* Cc1ccc(C(C)O)cc1 (stereo not drawn) [Benzyl alcohol, p,alpha-dimethyl-] | NOT MET
* C=C(C)CCC[C@H](C)CCOC(=O)CC [Rhodinyl propionate] | NOT MET
* C=C(C)C1CC=C(C)C(OC(C)=O)C1 (single isomer, unassigned; (-)) [(−)-Carvyl acetate] | NOT MET
* C=C(C)CCC[C@H](C)CCOC(=O)CC(C)C [Rhodinyl isovalerate] | NOT MET

====

System name: human TRPA1 (Homo sapiens, UniProt O75762, K186N/R3C/R58T)
Construct: expressed in transfected cells; pcDNA3 control cells
Assay summary: Intracellular calcium (Fluo-4, FLIPR) activation of TRPA1 cells by GRAS compounds
Format: cell-based
Study conditions: Table 1(a); 100 μM (*); relative to AITC 30 μM; read-out: A1 activation, % of agonist value
Result type: activation at 100 µM (%)

* O=C(CCc1ccc(O)cc1)c1c(O)cc(O)cc1O | 160
* O=Cc1ccc(O)cc1 [4-Hydroxybenzaldehyde] | 80.4
* c1ccc2scnc2c1 | 51.3
* Cc1nccnc1SCc1ccco1 | 80.7

====

System name: human TRPV1 (Homo sapiens, UniProt Q8NER1, M315I/T336M)
Construct: expressed in transfected cells; pcDNA3 control cells
Sequence (Q8NER1 whole entry M315I/T336M): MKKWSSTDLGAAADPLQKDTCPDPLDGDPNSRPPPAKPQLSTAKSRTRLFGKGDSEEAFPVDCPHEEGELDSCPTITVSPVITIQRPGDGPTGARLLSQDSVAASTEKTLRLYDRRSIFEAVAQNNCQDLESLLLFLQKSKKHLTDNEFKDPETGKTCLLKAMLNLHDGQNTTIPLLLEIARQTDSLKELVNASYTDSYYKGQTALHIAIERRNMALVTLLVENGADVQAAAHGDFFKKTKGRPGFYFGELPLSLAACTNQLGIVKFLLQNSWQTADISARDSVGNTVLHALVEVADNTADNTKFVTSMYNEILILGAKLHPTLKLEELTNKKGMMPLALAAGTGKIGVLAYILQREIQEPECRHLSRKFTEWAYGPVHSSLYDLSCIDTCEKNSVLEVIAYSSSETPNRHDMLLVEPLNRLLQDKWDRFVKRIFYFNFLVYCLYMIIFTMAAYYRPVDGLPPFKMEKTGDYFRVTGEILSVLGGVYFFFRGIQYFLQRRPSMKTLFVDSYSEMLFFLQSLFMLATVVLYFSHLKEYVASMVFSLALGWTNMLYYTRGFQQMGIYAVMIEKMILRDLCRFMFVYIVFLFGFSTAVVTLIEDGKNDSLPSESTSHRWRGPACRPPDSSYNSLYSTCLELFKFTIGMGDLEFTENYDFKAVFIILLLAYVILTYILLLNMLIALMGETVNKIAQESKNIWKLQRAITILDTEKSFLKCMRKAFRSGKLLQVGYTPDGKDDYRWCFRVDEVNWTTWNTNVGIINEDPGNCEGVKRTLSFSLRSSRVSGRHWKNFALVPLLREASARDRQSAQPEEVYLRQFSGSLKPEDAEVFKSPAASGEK
Assay summary: Intracellular calcium (Fluo-4, FLIPR) activation of TRPV1 cells by GRAS compounds
Assay type: cell-based
Study conditions: Table 1(h); 1 mM; relative to capsaicin 350 nM; read-out: V1 activation, % of agonist value
# activation at 1000 µM per entry
Result type: activation at 1000 µM

* CC(C)c1ccccc1O | 108%
* O=C(/C=C/C=C/c1ccc2c(c1)OCO2)N1CCCCC1 | 120%
* O=C([O-])[C@H](O)[C@@H](O)[C@H](O)[C@H](O)CO.[K+] [Gluconic acid, monopotassium salt] | 33%
* Cc1ccc(C)c(O)c1 | 81.2%
* CCC(C)(O)CCc1ccccc1 (stereo not shown) | 100%
* O=C(O)C(O)C(O)C(=O)O (stereo not shown) | 55.8%
* Cc1cccc(C)c1O | 72.1%

====

System name: human TRPV1 (Homo sapiens, UniProt Q8NER1, M315I/T336M)
Construct: expressed in transfected cells; pcDNA3 control cells
Assay summary: Intracellular calcium (Fluo-4, FLIPR) activation of TRPV1 cells by GRAS compounds
Format: cell-based
Study conditions: Table 1(f); 1 mM; relative to capsaicin 350 nM; read-out: V1 activation, % of agonist value
The threshold is inclusive: activation at 1000 µM of exactly 50% counts as Fulfilled; values below receive Not fulfilled.

* c1ccc2[nH]ccc2c1 | Fulfilled
* CCCCCCCC(=O)O | Fulfilled
* Cc1ccc(C(C)CC=O)o1 (stereo not drawn) | Fulfilled
* CC(=O)c1cc(C)sc1C | Fulfilled
* CCCCCCCC1CC(C)OC1=O (stereo not drawn) [3-Heptyldihydro-5-methylfuran-2(3H)-one] | Not fulfilled
* CCCCCCC1CCC(=O)O1 (stereo not drawn) [4-Decanolide] | Not fulfilled

====

# activation at 1000 µM per entry
System name: human TRPA1 (Homo sapiens, UniProt O75762, K186N/R3C/R58T)
Construct: expressed in transfected cells; pcDNA3 control cells
Assay summary: Intracellular calcium (Fluo-4, FLIPR) activation of TRPA1 cells by GRAS compounds
Type: cell-based
Study conditions: Table 1(d); 1 mM; relative to AITC 30 μM; read-out: A1 activation, % of agonist value
Result type: activation at 1000 µM (%)

• CCCCCCC/C=C/C=C/C=O [(E,E)-2,4-Dodecadienal] = 159
• CCCOC(=O)c1ccccc1 [Propyl benzoate] = 40.7
• CCCCCCCCOC(=O)c1ccco1 [Octyl 2-furoate] = 54.3
• CC=CC(=O)CC [2-Hexen-4-one] = 53
• CCCCCC(=O)CCCC(=O)OCC [Ethyl 5-oxodecanoate] = 51
• CCCCC/C=C/C=C/C=O [(E,E)-2,4-Decadienal] = 142
• CCCCCCOC(=O)c1cccnc1 [Hexyl nicotinate] = 72.9
• CCCCC/C=C\CCO [Cis-3-nonen-1-ol] = 55
• CSCCC=O [3-(Methylthio)propionaldehyde] = 53.8
• CCCC=CC(C)=O [3-Hepten-2-one] = 82
• CC/C=C\CCOC(=O)CC(C)C [cis-3-Hexenyl isovalerate] = 71.7
• CCC(CC)C(=O)O [2-Ethylbutyric acid] = 67.7

====

# activation at 1000 µM per entry
System name: human TRPA1 (Homo sapiens, UniProt O75762, K186N/R3C/R58T)
Construct: expressed in transfected cells; pcDNA3 control cells
Assay summary: Intracellular calcium (Fluo-4, FLIPR) activation of TRPA1 cells by GRAS compounds
Type: cell-based
Study conditions: Table 1(c); 1 mM; relative to AITC 30 μM; read-out: A1 activation, % of agonist value
Result type: activation at 1000 µM (%)

* S=C=NCCc1ccccc1 [Phenethyl isothiocyanate] | 92
* COC(=O)CCCc1ccccc1 [Methyl 4-phenylbutyrate] | 58.4
* CCCC(CCOC(C)=O)SC (stereo not drawn) [3-(Methylthio)hexyl acetate] | 97.9
* CCCCCCCCCC(=O)O | 65.1
* CCCSSc1ccoc1C [Propyl 2-methyl-3-furyl disulfide] | 266
* CCCC=C1OC(=O)c2ccccc21 [3-Butylidenephthalide] | 119
* C/C=C/C=C/C=O [(E,E)-2,4-Hexadienal] | 92
* C=CCCC=O | 75.4
* CC1=NC(CC(C)C)SC1C (stereo not drawn) | 142
* OC[C@H]1O[C@@](CO)(O[C@H]2O[C@H](CO)[C@@H](O)[C@H](O)[C@H]2O)[C@@H](O)[C@@H]1O | 84.1
* CC/C=C\CCCCC=O [cis-6-Nonenal] | 108
* CC(C)=CCC[C@](C)(O)C1CC=C(C)CC1 (stereo partly drawn) | 68
* SCCCCCCS | 68.6
* CCCCCC=CC(=O)O | 55.9
* Cc1cccc(C)c1S | 84.4
* CCCC(=O)OCc1ccccc1 [Benzyl butyrate] | 70
* CC/C=C/C=O [Trans-2-Pentenal] | 80.9
* CCCC=CC=CC=O | 80.9
* COC(=O)c1ccccc1NC=O [Methyl o-formamidobenzoate] | 75.4
* CSSc1ccoc1C [Methyl 2-methyl-3-furyl disulfide] | 52.6
* O=Cc1ccccc1O | 66.9
* COC(=O)c1ccc(OC)cc1 [Methyl p-anisate] | 57.5
* CC(=O)Cc1ccco1 | 60.8
* C=CCCN=C=S [3-Butenyl isothiocyanate] | 99.4

====

System name: human TRPV1 (Homo sapiens, UniProt Q8NER1, M315I/T336M)
Construct: expressed in transfected cells; pcDNA3 control cells
Assay summary: Intracellular calcium (Fluo-4, FLIPR) activation of TRPV1 cells by GRAS compounds;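 also: TRPV1-expressing cells, FLIPR fluorescence at 488/514 nm with baseline subtracted, sampled every 2 s for 10 min after adding compound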
Assay type: cell-based
Study conditions: Table 1(a); 1 mM; relative to capsaicin 350 nM; average of three plates
Result type: V1 activation, % of agonist value (%)

• CC/C=C\CCOC(=O)C(C)=O [Pyruvic caid cis-3-hexen-1-yl ester] = 21
• CC(C)=CCCC(C)=CCCC(C)=CC=O = 41.22
• CC1=C(CC=O)C(C)(C)CCC1 = 61.74
• CCCCCC1CCC(=O)O1 (centres unmarked) = 66.34
• CC(=O)/C=C/C=C(\C)CCC=C(C)C = 20.76
• C=CCc1cccc(OC)c1O = 64.5
• CC(C=O)Cc1ccc2c(c1)OCO2 (centres unmarked) = 23.38
• CC/C=C\CCCCO [5-Octen-1-ol, (Z)] = 20.50

====

System name: human TRPA1 (Homo sapiens, UniProt O75762, K186N/R3C/R58T)
Construct: expressed in transfected cells; pcDNA3 control cells
Assay summary: Intracellular calcium (Fluo-4, FLIPR) activation of TRPA1 cells by GRAS compounds;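 also: TRPA1-expressing cells, fluorescence read on a FLIPR Tetra (ex 488 nm, em 514 nm) every 2 s for 10 min after compound addition, baseline subtracted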
Type: cell-based
Study conditions: Table 1(c); 100 μM (*); relative to AITC 30 μM; read-out: A1 activation, % of agonist value
# activation at 100 µM per entry
Result type: activation at 100 µM (%)

• CCCCCCCCCC(C)C=O (stereo not drawn) = 54.9
• CCC(S)C(C)=O (stereo not drawn) = 103
• CCC(=O)OCCC(C)CCC=C(C)C (stereo not drawn) [Citronellyl propionate] = 52.5
• CCOC(=O)C(C)S (stereo not drawn) [Ethyl 2-mercaptopropionate] = 88.3
• CCCC(=O)OCCC(C)CCC=C(C)C (stereo not drawn) [Citronellyl butyrate] = 44.9
• C=CCCCN=C=S = 51.6
• C=CC(C)(CCC=C(C)C)OC(=O)c1ccccc1 (stereo not drawn) [Linalyl benzoate] = 44.4
• CCCCCCCCC/C=C/C=O [Trans-2-dodecenal] = 79.1
• Cc1c[nH]c2ccccc12 = 66.2
